// reported Emax per item
biological target: human F508del-CFTR (Homo sapiens, UniProt P13569, DEL508-508); experiment: F508del-CFTR cell surface expression (corrector activity), DiscoveRx ß-galactosidase complementation chemiluminescence assay in recombinant U2OS cell line; details: U2OS, in relation to the Emax of the corrector lumacaftor (=100%); U2OS cell line, 16h compound incubation; arithmetic mean values;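 further: U2OS cells co-expressing ProLink-tagged F508del-CFTR and a membrane-anchored enzyme acceptor, where more surface CFTR restores β-galactosidase activity measured by chemiluminescence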
Sequence (P13569 with tags, fused parts or gaps DEL508-508): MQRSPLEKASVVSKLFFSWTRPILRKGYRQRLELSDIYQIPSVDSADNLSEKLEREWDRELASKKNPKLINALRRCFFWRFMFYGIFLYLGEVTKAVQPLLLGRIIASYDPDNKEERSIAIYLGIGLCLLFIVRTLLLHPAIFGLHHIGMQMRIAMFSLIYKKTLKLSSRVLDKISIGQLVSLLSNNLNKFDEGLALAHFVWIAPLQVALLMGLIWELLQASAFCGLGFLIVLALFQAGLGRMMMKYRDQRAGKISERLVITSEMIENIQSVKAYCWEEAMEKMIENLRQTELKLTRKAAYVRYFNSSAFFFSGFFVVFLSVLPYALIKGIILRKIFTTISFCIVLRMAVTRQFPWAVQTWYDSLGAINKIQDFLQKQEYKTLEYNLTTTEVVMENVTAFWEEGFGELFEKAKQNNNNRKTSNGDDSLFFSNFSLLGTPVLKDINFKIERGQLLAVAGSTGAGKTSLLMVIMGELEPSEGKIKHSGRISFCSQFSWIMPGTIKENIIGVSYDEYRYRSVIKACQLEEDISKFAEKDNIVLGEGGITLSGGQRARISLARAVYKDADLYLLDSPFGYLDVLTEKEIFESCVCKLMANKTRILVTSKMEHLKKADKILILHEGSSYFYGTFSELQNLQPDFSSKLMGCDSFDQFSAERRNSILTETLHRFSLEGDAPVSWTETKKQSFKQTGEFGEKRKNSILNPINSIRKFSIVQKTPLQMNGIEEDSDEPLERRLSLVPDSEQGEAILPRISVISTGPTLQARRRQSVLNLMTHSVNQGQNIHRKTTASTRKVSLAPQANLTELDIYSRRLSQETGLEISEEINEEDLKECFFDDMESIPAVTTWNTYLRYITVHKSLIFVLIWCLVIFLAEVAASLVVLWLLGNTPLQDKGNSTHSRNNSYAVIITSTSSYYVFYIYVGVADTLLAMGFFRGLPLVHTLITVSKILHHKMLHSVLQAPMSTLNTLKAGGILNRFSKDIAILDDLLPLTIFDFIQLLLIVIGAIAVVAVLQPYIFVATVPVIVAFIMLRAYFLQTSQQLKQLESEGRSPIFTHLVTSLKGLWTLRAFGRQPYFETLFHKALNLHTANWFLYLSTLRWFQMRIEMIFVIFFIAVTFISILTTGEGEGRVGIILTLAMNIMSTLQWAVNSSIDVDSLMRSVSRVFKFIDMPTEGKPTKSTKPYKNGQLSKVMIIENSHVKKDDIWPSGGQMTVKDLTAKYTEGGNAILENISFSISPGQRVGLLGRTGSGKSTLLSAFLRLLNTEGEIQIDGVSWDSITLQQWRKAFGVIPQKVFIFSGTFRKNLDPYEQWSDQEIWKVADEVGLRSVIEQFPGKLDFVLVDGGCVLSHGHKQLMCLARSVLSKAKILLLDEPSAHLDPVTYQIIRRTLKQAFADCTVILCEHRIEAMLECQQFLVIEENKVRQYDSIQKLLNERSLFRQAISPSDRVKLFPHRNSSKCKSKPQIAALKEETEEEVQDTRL
Write down the numeric answer in % and omit the unit.

[
  {
    "compound": "COc1cccc(CCNC(=O)[C@@H]2CC(=O)N(C)[C@@H](CC(C)C)C(=O)N(CCC3CCCCC3)CC(=O)N[C@H](Cc3ccccc3)COc3cccc(C)c3C(=O)N2)c1 [Example 247]",
    "units": "%",
    "Emax": 111
  }
]

The compound listed as CCOc1cccc2c1C(=O)N[C@H](C(=O)NCCc1cccc(OC)c1)CC(=O)N(C)[C@@H](CC(C)C)C(=O)N1CCCC[C@@H]1C(=O)N[C@H](Cc1ccccc1)CO2 [Example 280] shows Emax equal to 188

The compound listed as COc1ccc(CCNC(=O)[C@@H]2CC(=O)N(C)[C@@H](CC(C)C)C(=O)N(C)CC(=O)N[C@H](Cc3ccccc3)COc3cc4c(cc3C(=O)N2)OCO4)cc1 [Example 153] shows Emax equal to 115

The compound listed as CC(C)C[C@H]1C(=O)N2CCOC[C@@H]2C(=O)N[C@H](Cc2ccccc2)COc2cnc3ccccc3c2C(=O)N[C@H](C(=O)NCCc2ccccc2)CC(=O)N1C [Example 58] shows Emax equal to 175

The compound listed as COc1cc2c(cc1OC)C(=O)N[C@H](C(=O)NCCc1ccc(N(C)C)cc1)CC(=O)N(C)[C@@H](CC(C)C)C(=O)N(C)CC(=O)N[C@H](Cc1ccccc1)CO2 [Example 197] shows Emax equal to 132

The compound listed as COc1cccc(CCNC(=O)[C@@H]2CC(=O)N(C)[C@@H](CC(C)C)C(=O)N(CC[C@H]3CCCCO3)CC(=O)N[C@H](Cc3ccccc3)COc3cccc(OC)c3C(=O)N2)c1 (racemic) [Example 310] shows Emax equal to 202

The compound listed as CC(C)C[C@H]1C(=O)N2CCOC[C@@H]2C(=O)N[C@H](Cc2ccccc2)COc2ccc3ccccc3c2C(=O)N[C@H](C(=O)NCCc2noc(C3CC3)n2)CC(=O)N1C [Example 45] shows Emax equal to 324

The compound listed as COc1cccc(CCNC(=O)[C@@H]2CC(=O)N(C)[C@@H](CC(C)C)C(=O)N(C)CC(=O)N[C@H](Cc3ccccc3)COc3cc4c(cc3C(=O)N2)OCO4)c1 [Example 224] shows Emax equal to 144

The compound listed as COc1cccc2c1C(=O)N[C@H](C(=O)NCCc1ccc3c(c1)OCO3)CC(=O)N(C)[C@@H](CC1CCCC1)C(=O)N(C[C@H]1CCCCO1)CC(=O)N[C@H](Cc1ccccc1)CO2 [Example 307] shows Emax equal to 113

The compound listed as COc1cccc(CCNC(=O)[C@@H]2CC(=O)N(C)[C@@H](CC(C)C)C(=O)N3CCN(CC(C)C)C[C@@H]3C(=O)N[C@H](Cc3ccccc3)COc3cnc4ccccc4c3C(=O)N2)c1 [Example 372] shows Emax equal to 360

The compound listed as CC(C)C[C@H]1C(=O)N(C)CC(=O)N[C@H](Cc2ccccc2)COc2cc3c(cc2C(=O)N[C@H](C(=O)NCCc2ccc4c(c2)OCCCO4)CC(=O)N1C)OCO3 [Example 101] shows Emax equal to 163

The compound listed as COc1cccc2c1C(=O)N[C@H](C(=O)NCCc1cc(C)no1)CC(=O)N(C)[C@@H](CC(C)C)C(=O)N(CCC1CCCCC1)CC(=O)N[C@H](Cc1ccccc1)CO2 [Example 214] shows Emax equal to 221

The compound listed as CC(C)C[C@H]1C(=O)N2CCOC[C@@H]2C(=O)N[C@H](Cc2ccccc2)COc2cnc3ccccc3c2C(=O)N[C@H](C(=O)NCCc2cccc(Br)c2)CC(=O)N1C [Example 52] shows Emax equal to 176

The compound listed as CC(C)C[C@H]1C(=O)N2CCCC[C@@H]2C(=O)N[C@H](Cc2ccccc2)COc2cnc3ccccc3c2C(=O)N[C@H](C(=O)NCCc2noc(C(C)(C)C)n2)CC(=O)N1C [Example 85] shows Emax equal to 244

The compound listed as COc1ccc(OCCNC(=O)[C@@H]2CC(=O)N(C)[C@@H](CC(C)C)C(=O)N3CCOC[C@@H]3C(=O)N[C@H](Cc3ccccc3)COc3ccc4ccccc4c3C(=O)N2)cc1 [Example 34] shows Emax equal to 121

The compound listed as COc1cc2c(cc1OC)C(=O)N[C@H](C(=O)NCCc1ccc3c(c1)OCO3)CC(=O)N(C)[C@@H](CC(C)C)C(=O)N(CCC(C)(C)OC)CC(=O)N[C@H](Cc1ccccc1)CO2 (mixture of isomers) [Example 156] shows Emax equal to 123

The compound listed as CC(C)C[C@H]1C(=O)N(C)C2(CC2)C(=O)N[C@H](Cc2ccccc2)COc2cnc3ccccc3c2C(=O)N[C@H](C(=O)NCCc2ccccc2)CC(=O)N1C [Example 108] shows Emax equal to 222

The compound listed as [2H]C([2H])([2H])Oc1cccc(CCNC(=O)[C@@H]2CC(=O)N(C)[C@@H](CC(C)C)C(=O)N(C)CC(=O)N[C@H](Cc3ccccc3)COc3cnc4ccccc4c3C(=O)N2)c1 [Example 320] shows Emax equal to 297

The compound listed as COc1cc2c(cc1OC)C(=O)N[C@H](C(=O)NCCc1ccc3c(c1)CCO3)CC(=O)N(C)[C@@H](CC(C)C)C(=O)N(C)CC(=O)N[C@H](Cc1ccccc1)CO2 (racemic) [Example 152] shows Emax equal to 133

The compound listed as COc1cccc(CCNC(=O)[C@@H]2CC(=O)N(C)[C@@H](CC(C)C)C(=O)N(CCC3CCCCC3)CC(=O)N[C@H](Cc3ccccc3)COc3ccnc(OC)c3C(=O)N2)c1 [Example 282] shows Emax equal to 360

meta.source: patent US20240208992A1
